Molecular target: Glucose oxidase (GOD) (E.C.1.1.3.4.) (Aspergillus niger, UniProt P13006)
Sequence (P13006 17-605, species assumed): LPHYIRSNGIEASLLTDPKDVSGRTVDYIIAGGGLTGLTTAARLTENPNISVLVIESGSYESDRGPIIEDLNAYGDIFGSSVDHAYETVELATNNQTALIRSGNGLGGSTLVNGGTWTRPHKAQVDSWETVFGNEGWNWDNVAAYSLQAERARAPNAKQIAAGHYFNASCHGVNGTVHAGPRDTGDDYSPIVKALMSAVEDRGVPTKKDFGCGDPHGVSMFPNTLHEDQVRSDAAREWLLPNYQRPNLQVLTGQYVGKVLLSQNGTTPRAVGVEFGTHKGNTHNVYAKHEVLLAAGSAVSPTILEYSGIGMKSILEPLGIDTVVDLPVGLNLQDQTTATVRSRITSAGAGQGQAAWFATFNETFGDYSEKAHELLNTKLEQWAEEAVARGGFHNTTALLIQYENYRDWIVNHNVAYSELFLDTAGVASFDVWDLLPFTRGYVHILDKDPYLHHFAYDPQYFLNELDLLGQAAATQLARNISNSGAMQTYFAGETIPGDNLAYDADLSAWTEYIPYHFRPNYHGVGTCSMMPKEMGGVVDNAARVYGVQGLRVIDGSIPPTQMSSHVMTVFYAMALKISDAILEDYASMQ
Experiment: Cyclic voltammetry of GOD-graphite/paraffin pasta electrode containing the mediator
Format: biochemical
Settings: Ag/AgCl ref.

>  <Compound>
CN(C)c1ccc(N2CCOCC2)cc1 [MDMP, 1-dimethylamino-4-morpholinobenzene]

>  <Unit Name>
mV

>  <Catalytic interval beginning at>
-20

$$$$
>  <Compound>
C[N+](C)=c1ccc2nc3c(ccc4ccccc43)oc-2c1 [MB]

>  <Unit Name>
mV

>  <Catalytic interval beginning at>
-50

$$$$
>  <Compound>
CN(C)c1ccc2c(c1)Sc1c(ccc(N(C)C)c1[N+](=O)[O-])N2 [MG]

>  <Unit Name>
mV

>  <Catalytic interval beginning at>
-50

$$$$
>  <Compound>
c1cc(N2CCOCC2)ccc1N1CCOCC1 [BMP, 1,4-dimorpholinobenzene]

>  <Unit Name>
mV

>  <Catalytic interval beginning at>
50

$$$$
>  <Compound>
c1cc(N2CCCCC2)ccc1N1CCCCC1 [BPP, 1,4-dipiperidinobenzene]

>  <Unit Name>
mV

>  <Catalytic interval beginning at>
0

$$$$
>  <Compound>
c1cc(N2CCOCC2)ccc1N1CCCCC1 [MPP, 1-morpholino-4-piperidinobenzene]

>  <Unit Name>
mV

>  <Catalytic interval beginning at>
20

$$$$

###

Documented activity of rod in stability test across a set of compounds
Assay: Stability test of pasta rods with selected mediators stored at different temperatures
Type: physicochemical
Design: unit not given here
Conditions: 20°C; listed as b; Time 0
Experimental Endpoint: activity of rod in stability test

>  <Compound>
CN(C)c1ccc2c(c1)Sc1c(ccc(N(C)C)c1[N+](=O)[O-])N2 [MG]

>  <Experimental Endpoint>
activity of rod in stability test

>  <Measured Value>
12.5

$$$$
>  <Compound>
c1cc(N2CCCCC2)ccc1N1CCCCC1 [BPP, 1,4-dipiperidinobenzene]

>  <Experimental Endpoint>
activity of rod in stability test

>  <Measured Value>
10.5

$$$$
>  <Compound>
CN(C)c1ccc(N2CCOCC2)cc1 [MDMP, 1-dimethylamino-4-morpholinobenzene]

>  <Experimental Endpoint>
activity of rod in stability test

>  <Measured Value>
16.0

$$$$
>  <Compound>
c1cc(N2CCOCC2)ccc1N1CCOCC1 [BMP, 1,4-dimorpholinobenzene]

>  <Experimental Endpoint>
activity of rod in stability test

>  <Measured Value>
20.5

$$$$
>  <Compound>
c1cc(N2CCOCC2)ccc1N1CCCCC1 [MPP, 1-morpholino-4-piperidinobenzene]

>  <Experimental Endpoint>
activity of rod in stability test

>  <Measured Value>
7.2

$$$$

###

Test: Stability test of pasta rods with selected mediators stored at different temperatures
Assay type: physicochemical
Set-up: unit not given here
Settings: 54°C; listed as b; Time 0
# key: entry, value: activity of rod in stability test

>  <Molecule>
CN(C)c1ccc2c(c1)Sc1c(ccc(N(C)C)c1[N+](=O)[O-])N2 [MG]

>  <activity of rod in stability test>
12.8

$$$$
>  <Molecule>
CN(C)c1ccc(N2CCOCC2)cc1 [MDMP, 1-dimethylamino-4-morpholinobenzene]

>  <activity of rod in stability test>
14.4

$$$$
>  <Molecule>
c1cc(N2CCOCC2)ccc1N1CCOCC1 [BMP, 1,4-dimorpholinobenzene]

>  <activity of rod in stability test>
20.5

$$$$
>  <Molecule>
c1cc(N2CCOCC2)ccc1N1CCCCC1 [MPP, 1-morpholino-4-piperidinobenzene]

>  <activity of rod in stability test>
11.3

$$$$
>  <Molecule>
c1cc(N2CCCCC2)ccc1N1CCCCC1 [BPP, 1,4-dipiperidinobenzene]

>  <activity of rod in stability test>
10.3

$$$$

###

Assay: Stability test of pasta rods with selected mediators stored at different temperatures
Assay type: physicochemical
Set-up: unit not given here
Details: 20°C; listed as a; Time 0
Experimental Endpoint: activity of rod in stability test

>  <Structure>
c1cc(N2CCCCC2)ccc1N1CCCCC1

>  <Experimental Endpoint>
activity of rod in stability test

>  <Measured Value>
10.0

$$$$
>  <Structure>
CN(C)c1ccc2c(c1)Sc1c(ccc(N(C)C)c1[N+](=O)[O-])N2

>  <Experimental Endpoint>
activity of rod in stability test

>  <Measured Value>
14.9

$$$$
>  <Structure>
c1cc(N2CCOCC2)ccc1N1CCOCC1

>  <Experimental Endpoint>
activity of rod in stability test

>  <Measured Value>
18.5

$$$$
>  <Structure>
CN(C)c1ccc(N2CCOCC2)cc1

>  <Experimental Endpoint>
activity of rod in stability test

>  <Measured Value>
16.4

$$$$
>  <Structure>
c1cc(N2CCOCC2)ccc1N1CCCCC1

>  <Experimental Endpoint>
activity of rod in stability test

>  <Measured Value>
10.0

$$$$

###

Experiment: Redox potential of the mediator at GC electrode
Format: physicochemical
Conditions: Ag/AgCl ref.; in mV (unit assumed)
Criterion: Redoxpotential at GCElectrode strictly less than 100. Met: Criterion met. Not met: Criterion not met.

>  <Structure>
c1cc(N2CCOCC2)ccc1N1CCCCC1

>  <Cat>
Criterion not met

$$$$
>  <Structure>
CN(C)c1ccc2c(c1)Sc1c(ccc(N(C)C)c1[N+](=O)[O-])N2

>  <Cat>
Criterion met

$$$$
>  <Structure>
c1cc(N2CCCCC2)ccc1N1CCCCC1

>  <Cat>
Criterion not met

$$$$
>  <Structure>
c1cc(N2CCOCC2)ccc1N1CCOCC1

>  <Cat>
Criterion not met

$$$$
>  <Structure>
C[N+](C)=c1ccc2nc3c(ccc4ccccc43)oc-2c1

>  <Cat>
Criterion met

$$$$
>  <Structure>
CN(C)c1ccc(N2CCOCC2)cc1

>  <Cat>
Criterion not met

$$$$

###

The entries below are paired with their reported activity of rod in stability test.
Test: Stability test of pasta rods with selected mediators stored at different temperatures
Assay type: physicochemical
Parameters: unit not given here
Conditions: 54°C; listed as a; Time 0

>  <Structure>
c1cc(N2CCCCC2)ccc1N1CCCCC1

>  <activity of rod in stability test>
11.1

$$$$
>  <Structure>
c1cc(N2CCOCC2)ccc1N1CCOCC1

>  <activity of rod in stability test>
18.4

$$$$
>  <Structure>
c1cc(N2CCOCC2)ccc1N1CCCCC1

>  <activity of rod in stability test>
12.5

$$$$
>  <Structure>
CN(C)c1ccc2c(c1)Sc1c(ccc(N(C)C)c1[N+](=O)[O-])N2

>  <activity of rod in stability test>
15.8

$$$$
>  <Structure>
CN(C)c1ccc(N2CCOCC2)cc1

>  <activity of rod in stability test>
17.4

$$$$

###

Target: UniProtKB P13006
Assay: Chronoamperometry of GOD-graphite/paraffin pasta electrode containing the mediator (glucose measurement)
Format: biochemical
Conditions: glucose

>  <Compound>
CN(C)c1ccc(N2CCOCC2)cc1 [MDMP, 1-dimethylamino-4-morpholinobenzene]

>  <System>
UniProtKB P13006

>  <Unit Name>
mM

>  <Linearity>
20

$$$$
>  <Compound>
c1cc(N2CCOCC2)ccc1N1CCCCC1 [MPP, 1-morpholino-4-piperidinobenzene]

>  <System>
UniProtKB P13006

>  <Unit Name>
mM

>  <Linearity>
20

$$$$
>  <Compound>
c1cc(N2CCCCC2)ccc1N1CCCCC1 [BPP, 1,4-dipiperidinobenzene]

>  <System>
UniProtKB P13006

>  <Unit Name>
mM

>  <Linearity>
20

$$$$
>  <Compound>
c1cc(N2CCOCC2)ccc1N1CCOCC1 [BMP, 1,4-dimorpholinobenzene]

>  <System>
UniProtKB P13006

>  <Unit Name>
mM

>  <Linearity>
20

$$$$
>  <Compound>
CN(C)c1ccc2c(c1)Sc1c(ccc(N(C)C)c1[N+](=O)[O-])N2 [MG]

>  <System>
UniProtKB P13006

>  <Unit Name>
mM

>  <Linearity>
40

$$$$
>  <Compound>
C[N+](C)=c1ccc2nc3c(ccc4ccccc43)oc-2c1 [MB]

>  <System>
UniProtKB P13006

>  <Unit Name>
mM

>  <Linearity>
40

$$$$

###

Biological target: UniProt P13006
Assay: Chronoamperometry of GOD-graphite/paraffin pasta electrode containing the mediator (glucose measurement)
Format: biochemical
Conditions: at 7mM glucose

>  <Structure>
CN(C)c1ccc2c(c1)Sc1c(ccc(N(C)C)c1[N+](=O)[O-])N2

>  <System>
UniProt P13006

>  <SD% of 100 measurement [%]>
7.5

$$$$
>  <Structure>
c1cc(N2CCOCC2)ccc1N1CCOCC1

>  <System>
UniProt P13006

>  <SD% of 100 measurement [%]>
6.5

$$$$
>  <Structure>
C[N+](C)=c1ccc2nc3c(ccc4ccccc43)oc-2c1

>  <System>
UniProt P13006

>  <SD% of 100 measurement [%]>
6.5

$$$$
>  <Structure>
CN(C)c1ccc(N2CCOCC2)cc1

>  <System>
UniProt P13006

>  <SD% of 100 measurement [%]>
4.5

$$$$
>  <Structure>
c1cc(N2CCOCC2)ccc1N1CCCCC1

>  <System>
UniProt P13006

>  <SD% of 100 measurement [%]>
4.0

$$$$
>  <Structure>
c1cc(N2CCCCC2)ccc1N1CCCCC1

>  <System>
UniProt P13006

>  <SD% of 100 measurement [%]>
3.5

$$$$
